- experiment.summary: Solubility (physico-chemical properties)
- Assay type: physicochemical
- condition.label: organic solvent or mixture; in DMSO and in chloroform; read-out: solubility in organic solvents
measured.property: solubility

Ask | May I ask what solubility has been recorded for CCCCCCCCCCCCCCCCCC(=O)NCCc1ccccc1 [Example 7, N-β-phenylethyl-stearoyl amide] ?
Reply | > 10 mg/mL

Ask | May I ask what solubility has been recorded for CCCCCCCCCCCCCCCC(=O)NC1CC1 [Example 19, N-cyclopropyl-palmitoyl amide] ?
Reply | > 10 mg/mL

Ask | May I ask what solubility has been recorded for CCCCCCCCCCCCCCCC(=O)OC(C)C [Example 10, iso-propyl-palmitate] ?
Reply | > 10 mg/mL

Ask | May I ask what solubility has been recorded for CCCCCCCCCCCCCCCC(=O)OC1CCCC1 [Example 41, cyclopentyl-palmitate] ?
Reply | > 10 mg/mL

Ask | May I ask what solubility has been recorded for CCCCCCCCCCCCCCCC(=O)OCCC [Example 8, n-propyl-palmitate] ?
Reply | > 10 mg/mL

Ask | May I ask what solubility has been recorded for CCCCCCCCCCCCCCCCCC(=O)OCC(C)C [Example 32, iso-butyl-stearate] ?
Reply | > 10 mg/mL

Ask | May I ask what solubility has been recorded for CCCCCCCCCCCCCCCCCC(=O)NCCC [Example 18, N- propyl-stearoyl amide] ?
Reply | > 10 mg/mL

Ask | May I ask what solubility has been recorded for CCCCCCCCCCCCCCCCCC(=O)NC1CC1 [Example 20, N-cyclopropyl-stearoyl amide] ?
Reply | > 10 mg/mL

###

- Test system: reverse passive Arthus reaction, mouse ear pinna
- experiment.summary: Reverse passive Arthus reaction (RPA) in the mouse ear pinna: oedema and Evans blue extravasation
- Format: in vivo
- condition.label: reduction of extravasation versus Vehicle (0); mouse ear, 10 mg/Kg i.p.
Would you mind telling me the reported Riduction % (extravasation) of each entry?
Provide the reading as a plain figure in %.

Ask | May I ask what Riduction % (extravasation) has been recorded for CCCCCCCCCCCCCCCC(=O)NCCCC [Example 23, N-butyl-palmitoyl amide] ?
Reply | 34.5

Ask | May I ask what Riduction % (extravasation) has been recorded for CCCCCCCCCCCCCCCC(=O)NCCC(C)C [Example 35, N-isopentyl-palmitoyl amide] ?
Reply | 35.6

Ask | May I ask what Riduction % (extravasation) has been recorded for CCCCCCCCCCCCCCCCCC(=O)NCC(C)C [Example 26, N-isobutyl-stearoyl amide] ?
Reply | 10.0

Ask | May I ask what Riduction % (extravasation) has been recorded for CCCCCCCCCCCCCCCCCC(=O)NCCC [Example 18, N- propyl-stearoyl amide] ?
Reply | 40.0

Ask | May I ask what Riduction % (extravasation) has been recorded for Cc1c(C(=O)c2cccc3ccccc23)c2cccc3c2n1[C@H](CN1CCOCC1)CO3 [WIN 55.212, reference compound] ?
Reply | 43.5

Ask | May I ask what Riduction % (extravasation) has been recorded for CCCCCCCCCCCCCCCC(=O)NC1CC1 [Example 19, N-cyclopropyl-palmitoyl amide] ?
Reply | 64.6

Ask | May I ask what Riduction % (extravasation) has been recorded for CCCCCCCCCCCCCCCCCC(=O)NC1CC1 [Example 20, N-cyclopropyl-stearoyl amide] ?
Reply | 61.2

Ask | May I ask what Riduction % (extravasation) has been recorded for CCCCCCCCCCCCCCCC(N)=O [Palmitoylamide] ?
Reply | 61.2

Ask | May I ask what Riduction % (extravasation) has been recorded for CCCCCCCCCCCCCCCCCC(N)=O [Starylamide, stearylamide] ?
Reply | 65.6

Ask | May I ask what Riduction % (extravasation) has been recorded for CCCCCCCCCCCCCCCCNC(C)=O [Example 12, N-hexadecyl-acetyl-amide] ?
Reply | 20.0

Ask | May I ask what Riduction % (extravasation) has been recorded for CCCCCCCCCCCCCCCC(=O)NCC(C)C [Example 25, N-isobutyl-palmitoyl amide] ?
Reply | 20.0

###

- System: reverse passive Arthus reaction, mouse ear pinna
- experiment.summary: Reverse passive Arthus reaction (RPA) in the mouse ear pinna: oedema and Evans blue extravasation
- Format: in vivo
- condition.label: reduction of extravasation versus Vehicle (0); mouse ear, 10 mg/Kg i.p.
Would you mind telling me the reported Riduction % (extravasation) of each entry?
Provide the reading as a plain figure in %.

Ask | May I ask what Riduction % (extravasation) has been recorded for CCCCCCCCCCCCCCCC(=O)NCCC [Example 17, N-propyl-palmitoyl amide] ?
Reply | 32.3

Ask | May I ask what Riduction % (extravasation) has been recorded for CCCCCCCCCCCCCCCCCC(=O)NCCCC [Example 24, N- butyl-stearoyl amide] ?
Reply | 38.9

Ask | May I ask what Riduction % (extravasation) has been recorded for CCCCCCCC/C=C\CCCCCCCC(N)=O [Oleylamide] ?
Reply | 21.8

Ask | May I ask what Riduction % (extravasation) has been recorded for CCCCCCCCCCCCCC(=O)NC(C)C [Example 1, N-isopropyl-myristoyl amide] ?
Reply | 36.7

Ask | May I ask what Riduction % (extravasation) has been recorded for CCCCCCCCCCCCCCCCCCNC(C)=O [Example 13, N-octadecyl-acetyl-amide] ?
Reply | 17.2

###

- experiment.summary: Rectal temperature (central cannabinoid effect, hypothermia)
- Assay type: in vivo, mouse
- condition.label: treated animals; Vehicle 0,1 ± 0,2
measured.property: ΔT (°C) rectal temperature

Ask | May I ask what ΔT (°C) rectal temperature has been recorded for CCCCCCCCCCCCCCCCCC(=O)NCCCCC [Example 34, N- pentyl-stearoyl amide] ?
Reply | 0,1 ± 0,1 °C

Ask | May I ask what ΔT (°C) rectal temperature has been recorded for CCCCCCCCCCCCCCCCCC(N)=O [Starylamide, stearylamide] ?
Reply | 0,3 ± 0,2 °C

Ask | May I ask what ΔT (°C) rectal temperature has been recorded for CCCCCCCCCCCCCCCCCC(=O)NCCC(C)C [Example 36, N-isopentyl-stearoyl amide] ?
Reply | 0,1 ± 0,1 °C

Ask | May I ask what ΔT (°C) rectal temperature has been recorded for CCCCCCCCCCCCCCCCCC(=O)NC1CCCC1 [Example 38, N-cyclopentyl-stearoyl amide] ?
Reply | 0,2 ± 0,2 °C

Ask | May I ask what ΔT (°C) rectal temperature has been recorded for CCCCCCCCCCCCCCCC(=O)NC1CCCCC1 [Example 15, N-cyclohexyl-palmitoyl amide] ?
Reply | 0,1 ± 0,1 °C

Ask | May I ask what ΔT (°C) rectal temperature has been recorded for Cc1c(C(=O)c2cccc3ccccc23)c2cccc3c2n1[C@H](CN1CCOCC1)CO3 [WIN 55.212, reference compound] ?
Reply | -5,1 ± 1,3 °C

Ask | May I ask what ΔT (°C) rectal temperature has been recorded for CCCCCCCCCCCCCCCCCC(=O)NC(C)C [Example 4, N-Isopropyl-stearoyl amide] ?
Reply | 0,2 ± 0,1 °C

Ask | May I ask what ΔT (°C) rectal temperature has been recorded for CCCCCCCCCCCCCCCC(N)=O [Palmitoylamide] ?
Reply | 0,2 ± 0,1 °C

Ask | May I ask what ΔT (°C) rectal temperature has been recorded for CCCCCCCCCCCCCCCC(=O)NC1CCC1 [Example 27, N-cyclobutyl-palmitoyl amide] ?
Reply | 0,1 ± 0,1 °C

Ask | May I ask what ΔT (°C) rectal temperature has been recorded for CCCCCCCCCCCCCCCC(=O)NCCC(C)C [Example 35, N-isopentyl-palmitoyl amide] ?
Reply | 0,3 ± 0,2 °C

Ask | May I ask what ΔT (°C) rectal temperature has been recorded for CCCCCCCCCCCCCCCC(=O)NCC(C)C [Example 25, N-isobutyl-palmitoyl amide] ?
Reply | 0,3 ± 0,1 °C

Ask | May I ask what ΔT (°C) rectal temperature has been recorded for CCCCCCCCCCCCCCCC(=O)NC(C)C [Example 2, N-isopropyl-palmitoyl amide] ?
Reply | 0,1 ± 0,1 °C

Ask | May I ask what ΔT (°C) rectal temperature has been recorded for CCCCCCCCCCCCCC(=O)NC(C)C [Example 1, N-isopropyl-myristoyl amide] ?
Reply | 0,2 ± 0,3 °C

Ask | May I ask what ΔT (°C) rectal temperature has been recorded for CCCCCCCCCCCCCCCCNC(C)=O [Example 12, N-hexadecyl-acetyl-amide] ?
Reply | 0,2 ± 0,2 °C

###

- Test system: reverse passive Arthus reaction, mouse ear pinna
- experiment.summary: Reverse passive Arthus reaction (RPA) in the mouse ear pinna: oedema and Evans blue extravasation
- Assay type: in vivo
- condition.label: reduction of extravasation versus Vehicle (0); mouse ear, 10 mg/Kg i.p.
Would you mind telling me the reported Riduction % (extravasation) of each entry?
Provide the reading as a plain figure in %.

Ask | May I ask what Riduction % (extravasation) has been recorded for CCCCCCCCCCCCCCCCCC(=O)NCCC(C)C [Example 36, N-isopentyl-stearoyl amide] ?
Reply | 42.7

Ask | May I ask what Riduction % (extravasation) has been recorded for CCCCCCCCCCCCCCCC(=O)NC(C)C [Example 2, N-isopropyl-palmitoyl amide] ?
Reply | 58.9

Ask | May I ask what Riduction % (extravasation) has been recorded for CCCCCCCCCCCCCCCC(=O)NCCCCC [Example 33, N-pentyl-palmitoyl amide] ?
Reply | 20.0

Ask | May I ask what Riduction % (extravasation) has been recorded for CCCCCCCCCCCCCCCCCC(=O)NC(C)C [Example 4, N-Isopropyl-stearoyl amide] ?
Reply | 77.8
